Cited source: patent US20220177604A1

Measured pIC50 accompanies every entry in the list below.
Target or test system: T1, human immunoglobulin E (hIgE) (human, UniProt P01854-1 1-428)
T1 construct: also called human IgE; Native IgE (Abcam)
T1 sequence (P01854 whole entry): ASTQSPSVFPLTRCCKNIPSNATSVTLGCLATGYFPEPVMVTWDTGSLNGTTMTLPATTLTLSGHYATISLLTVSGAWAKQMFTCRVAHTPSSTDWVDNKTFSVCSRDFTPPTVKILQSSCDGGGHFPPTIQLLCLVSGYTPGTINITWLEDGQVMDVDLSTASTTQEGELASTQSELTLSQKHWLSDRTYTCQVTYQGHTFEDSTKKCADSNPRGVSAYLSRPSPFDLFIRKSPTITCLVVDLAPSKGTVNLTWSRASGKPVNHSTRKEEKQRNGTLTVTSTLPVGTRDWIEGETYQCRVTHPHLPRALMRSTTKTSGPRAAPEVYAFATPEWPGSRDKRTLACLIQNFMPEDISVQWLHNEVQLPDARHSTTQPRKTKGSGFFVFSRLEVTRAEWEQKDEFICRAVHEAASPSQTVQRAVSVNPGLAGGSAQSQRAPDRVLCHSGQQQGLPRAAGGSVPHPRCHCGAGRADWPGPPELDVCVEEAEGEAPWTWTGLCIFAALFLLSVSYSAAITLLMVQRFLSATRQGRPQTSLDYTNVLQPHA
Measurement notes: SPR competition, hIgE + mAb over hFcεRIα chip, pH 7.4
Here pIC50 is given on a logarithmic scale as minus log10 of the concentration in mol/L.

# example entries with known answers
Binder	pIC50
18B9 human IgG1 mAb (antibody, V domains shown, human IgG1 and human light chain constant domains; also called clone 18B9) VH: QVQLVESGGGLVQPGGSLRLSCAASGFTFSSYVMSWVRQAPGKGLEWVSSIYSDGSHTYYADSVKGRFTISRDNAKNTLYLQMNSLKSEDTAVYYCAKNLEHYSGSYYYTDPRYDYWGQGTQVTVSS VL: SSALTQPSALSVTLGQTAKITCQGGSLGSSYVHWYQQKPGQAPVLVIYDGDSRPSGIPERFSGSSSGGTATLTISGAQAEDEDDYYCQSADSSGNAVFGGGTHLTVL	8.39
16E4 human IgG1 mAb (antibody, V domains shown, also called clone 16E4) VH: EVQLVESGGGLVQPGGSLRLSCAASGFTFSSYYMSWVRQAPGKGLEWVSSIYSDGSYAYYADSVKGRFTISRDNAKNTLYLQMNSLKSEDTAVYYCAKDLKARYSGTYHDEGYDYWGQGTQVTVSS VL: SSALTQPSALSVTLGQSAKITCQGGSLGATYAYWYQQKPGQAPVLVIYDDDSRPSGIPERFSGSSSGGRATLTISGAQAEDEGDYYCQSAYSNGNAVFGGGTHLTVL	8.37
3D1 human IgG1 mAb (antibody, V domains shown, human IgG1 and human light chain constant domains; also called clone 3D1; WT 3D1) VH: QLQVVESGGGLVQPGGSLRLSCAASGFTFSSYYMSWVRQAPGKGLEWVSSIYSDGRGSKTFYADSVKGRFTISRDNAKNTLYLQMNSLKSEDTAVYFCAKDLLVAARGSMDYWGQGTQVTVSS VL: NFMLTQPSAVSVSLEQTARITCQGGTLGSYGAHWYQQKPGQAPVLLIYGDNSRPSGIPERFSGTRSGGTATLTISGAQAEDEADYYCQSFDYSGNAVFGGGTHLTVL	8.28

Name the reported pIC50 value associated with the binder 20D5 human IgG1 mAb (antibody, V domains shown, also called clone 20D5) VH: QLQLVESGGGLVQPGGSLRLSCAASGFAFSSYVMTWVRQAPGKGLEWVSSIYSDGSHTYYADSVKDRFTISRDNAKNTLFLQMNSLKSEDTAVYYCAKDAEYYSGSYYYTDTKYDYWGQGTQVTVSS VL: SSALTQPSALSVTLGQTAKITCQGGSLGSSYAHWYQQKPGQAPVLVIYADDSRPSGIPERFSGSSSGGTATLTISGAQAEDEGDYYCQSADSSGNAVFGGGTHLTVL
8.47
